meta.source: patent US20030229053A1

Item-by-item account of pIC50
# target.or.system: UniProt:P26663
# Sequence (P26663 2420-3010 limits assumed): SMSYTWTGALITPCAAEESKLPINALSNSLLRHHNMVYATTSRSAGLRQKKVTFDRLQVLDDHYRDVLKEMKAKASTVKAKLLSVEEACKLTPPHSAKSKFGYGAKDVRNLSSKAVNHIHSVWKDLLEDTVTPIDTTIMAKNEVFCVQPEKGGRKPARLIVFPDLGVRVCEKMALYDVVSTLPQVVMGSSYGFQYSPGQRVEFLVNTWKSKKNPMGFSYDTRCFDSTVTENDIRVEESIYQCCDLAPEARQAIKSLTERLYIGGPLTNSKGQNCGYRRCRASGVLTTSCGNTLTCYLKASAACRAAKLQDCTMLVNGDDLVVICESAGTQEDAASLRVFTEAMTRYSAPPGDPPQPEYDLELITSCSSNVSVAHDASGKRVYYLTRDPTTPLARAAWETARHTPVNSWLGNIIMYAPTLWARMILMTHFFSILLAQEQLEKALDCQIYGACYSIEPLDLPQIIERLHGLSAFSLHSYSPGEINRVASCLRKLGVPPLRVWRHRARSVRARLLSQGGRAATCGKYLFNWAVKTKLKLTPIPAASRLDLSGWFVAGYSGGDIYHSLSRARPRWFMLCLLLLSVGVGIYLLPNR
# assay.remarks: In vitro RNA-dependent RNA polymerase assay (Assay 1), polyA/oligo dT, TCA precipitation
# Assay type: biochemical
# experimental.conditions: polyA/oligo dT template/primer, 200 ng NS5B, 2 h at 22° C.; read-out: RNA pol Assay 1 IC50 (μm)
# Description: Purification of Recombinant NS5B Using Fast Protein Liquid Chromatography (FPLC): Soluble NS5B protein in the S3 fraction was diluted to lower the NaCl concentration to 300 mM, then it incubated batchwise with DEAE sepharose beads (Amersham-Pharmacia) for 2 hrs at 4° C., as described by Behrens et al. (1996). Unbound material was cleared by centrifugation for 15 min at 4° C., at 25,000 rpm using a SW41 rotor (Beckman). […] Eluted fractions were analyzed by SDS-PAGE and western blotting. […]
pIC50: −log10 of the molar value.

Take a look at these entries with their results.
{"compound": "O=C(O)[C@H](Cc1ccccc1)N(Cc1ccc(-c2cccc(Cl)c2)o1)C(=O)c1ccc(Cl)cc1Cl", "pIC50": "> 5.30"}
{"compound": "O=C(O)[C@H](Cc1ccccc1)N(C(=O)c1ccc(Cl)cc1Cl)c1ccc(-c2cc3ccccc3o2)cc1", "pIC50": "> 5.30"}
{"compound": "O=C1c2ccccc2C(=O)c2cc(CN(C(=O)c3ccc(Cl)cc3Cl)[C@@H](Cc3ccccc3)C(=O)O)ccc21", "pIC50": "> 5.30"}
{"compound": "O=C(O)[C@H](Cc1ccccc1)N(Cc1cccs1)C(=O)c1ccc(Cl)cc1Cl", "pIC50": "> 5.30"}
{"compound": "COc1ccc(-c2ccc(CN(C(=O)c3ccc(Cl)cc3Cl)[C@@H](Cc3ccccc3)C(=O)O)s2)cc1", "pIC50": "> 5.30"}

Could you tell me which pIC50 is on file for `O=C(O)[C@H](Cc1ccccc1)N(Cc1cnc(N2CCN(c3ccccc3)CC2)s1)C(=O)c1ccc(Cl)cc1Cl` ?
4.70 to 5.30

Could you share which pIC50 value was measured for `O=C(O)[C@H](Cc1ccccc1)N(Cc1ccc(-c2cc3ccccc3o2)o1)C(=O)c1ccc(Cl)cc1Cl` ?
> 5.30

Look up pIC50 for this compound: `COc1cc(C)c(S(=O)(=O)N(Cc2ccc(-c3cc4ccccc4o3)cc2)[C@@H](Cc2ccccc2)C(=O)O)c(C)c1C`
> 5.30

# get_value(readout='pIC50', item= `O=C(O)[C@H](Cc1ccccc1)N(Cc1ccc(-c2ccncc2)o1)C(=O)c1ccc(Cl)cc1Cl` )
> 5.30

----------
# target.or.system: UniProt P26663
# assay.remarks: In vitro RNA-dependent RNA polymerase assay (Assay 1), polyA/oligo dT, TCA precipitation
# Format: biochemical
# experimental.conditions: polyA/oligo dT template/primer, 200 ng NS5B, 2 h at 22° C.; read-out: RNA pol Assay 1 IC50 (μm)
pIC50: −log10 of the molar value.
reported.metric: pIC50

{"compound": "O=C(O)[C@H](Cc1ccccc1)N(Cc1ccc(-c2ccc(Cl)c(Cl)c2)o1)C(=O)c1ccc(Cl)cc1Cl [compound #65]", "pIC50": "> 5.30"}
{"compound": "O=C(O)c1ccc(-c2ccc(CN(C(=O)c3ccc(Cl)cc3Cl)[C@@H](Cc3ccccc3)C(=O)O)s2)cc1 [compound #83]", "pIC50": "> 5.30"}
{"compound": "CCOC(=O)CC(c1cccs1)N(Cc1ccc(I)cc1)S(=O)(=O)c1c(C)cc(OC)c(C)c1C (stereo not drawn) [compound #8]", "pIC50": "4.70 to 5.30"}
{"compound": "O=C(O)[C@H](Cc1ccccc1)N(Cc1ccc(I)cc1)C(=O)c1ccc(Cl)cc1Cl [compound #12]", "pIC50": "4.70 to 5.30"}
{"compound": "C#CCN(C(=O)c1ccc(Cl)cc1Cl)[C@@H](Cc1ccccc1)C(=O)O [compound #111]", "pIC50": "4.70 to 5.30"}

State the recorded pIC50 for this entry: O=C(O)[C@H](Cc1ccccc1)N(Cc1ccc(-c2ccccc2C(F)(F)F)o1)C(=O)c1ccc(Cl)cc1Cl [compound #120]
> 5.30

Which measured pIC50 value corresponds to O=C(O)[C@H](Cc1ccccc1)N(Cc1ccc(-c2cccc(Cl)c2)o1)C(=O)c1ccccc1Cl [compound #55] ?
4.70 to 5.30
